Target: T1, GAL4 activation domain fusion (ACT) to HAB1 (UniProt Q9CAJ0 23-511, limits assumed)
T1 construct: pACT-HAB1 fusion in yeast reporter strains; also called pACT-HAB1
T1 sequence (looked up): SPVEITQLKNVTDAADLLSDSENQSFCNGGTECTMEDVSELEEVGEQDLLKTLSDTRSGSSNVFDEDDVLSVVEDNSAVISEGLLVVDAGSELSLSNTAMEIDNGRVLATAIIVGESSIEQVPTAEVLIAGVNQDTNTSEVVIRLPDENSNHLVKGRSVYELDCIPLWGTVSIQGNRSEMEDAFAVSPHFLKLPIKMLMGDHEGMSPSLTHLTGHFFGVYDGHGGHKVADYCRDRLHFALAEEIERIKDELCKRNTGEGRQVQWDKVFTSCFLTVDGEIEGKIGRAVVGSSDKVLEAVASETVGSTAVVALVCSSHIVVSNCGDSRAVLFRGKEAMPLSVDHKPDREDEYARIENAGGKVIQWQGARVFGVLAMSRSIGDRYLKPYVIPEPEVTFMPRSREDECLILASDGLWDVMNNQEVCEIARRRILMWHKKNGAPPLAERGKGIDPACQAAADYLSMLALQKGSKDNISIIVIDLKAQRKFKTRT
Assay: yeast two-hybrid, X-gal; lowest mandipropamid concentration giving signal
Listed next: entries and their corresponding Threshold.

{"BINDER": "PYR1^K59R,S122G (receptor, not shown: small tags and cut ends, pBD-PYR1 fusion in yeast) MPSELTPEERSELKNSIAEFHTYQLDPGSCSSLHAQRIHAPPELVWSIVRRFDKPQTYRHFIKSCSVEQNFEMRVGCTRDVIVISGLPANTSTERLDILDDERRVTGFSIIGGEHRLTNYKGVTTVHRFEKENRIWTVVLESYVVDMPEGNSEDDTRMFADTVVKLNLQKLATVAEAMARNSGDGSGSQVT", "Threshold": "100 µM"}
{"BINDER": "PYR1^K59R,F108I (receptor, not shown: small tags and cut ends, pBD-PYR1 fusion in yeast) MPSELTPEERSELKNSIAEFHTYQLDPGSCSSLHAQRIHAPPELVWSIVRRFDKPQTYRHFIKSCSVEQNFEMRVGCTRDVIVISGLPANTSTERLDILDDERRVTGISIIGGEHRLTNYKSVTTVHRFEKENRIWTVVLESYVVDMPEGNSEDDTRMFADTVVKLNLQKLATVAEAMARNSGDGSGSQVT", "Threshold": "100 µM"}
{"BINDER": "PYR1^K59R,F108T (receptor, not shown: small tags and cut ends, pBD-PYR1 fusion in yeast) MPSELTPEERSELKNSIAEFHTYQLDPGSCSSLHAQRIHAPPELVWSIVRRFDKPQTYRHFIKSCSVEQNFEMRVGCTRDVIVISGLPANTSTERLDILDDERRVTGTSIIGGEHRLTNYKSVTTVHRFEKENRIWTVVLESYVVDMPEGNSEDDTRMFADTVVKLNLQKLATVAEAMARNSGDGSGSQVT", "Threshold": "100 µM"}
